Examples of molecules with documented selectivity ratio follow.
assay: Therapeutic index, ratio of CC50 for human TZM-bl cells to EC50 for HIV-1 infected in TZM-bl cells
Assay type: cell-based
testSettings: read-out: Ratio CC50/EC50
Answer as a number with no unit attached.

# molecule, selectivity ratio
records = [
    ("COc1ccc(C2=Cc3ccc(F)cc3C(CC(=O)C(C)O)N2c2ccc(F)cc2)cc1 (centres undefined)", 1.1),
    ("COc1ccc(C2=Cc3ccc(F)cc3C(CC(=O)CO)N2c2ccc([N+](=O)[O-])cc2)cc1 (centres undefined)", 4.4),
    ("COc1ccc(C2=Cc3ccc(OC)cc3C(C[N+](=O)[O-])N2c2ccccc2)cc1 (centres undefined)", 2.8),
    ("COc1ccc(C2=Cc3ccc([N+](=O)[O-])cc3C(CC(C)=O)N2c2ccc(C#N)cc2)cc1 (centres undefined)", 0.6),
    ("COc1ccc(C2=Cc3ccc(F)cc3C(CC(=O)C(C)O)N2c2ccc([N+](=O)[O-])cc2)cc1 (centres undefined)", 0.7),
    ("Cc1ccc(C2=Cc3ccccc3C(C[N+](=O)[O-])N2c2ccc(F)cc2)cc1 (centres undefined)", 1.3),
    ("COc1ccc(C2=Cc3ccc([N+](=O)[O-])cc3C(CC(C)=O)N2c2ccc(C)cc2)cc1 (centres undefined)", 0.4),
    ("COc1ccc(C2=Cc3ccc([N+](=O)[O-])cc3C(CC(C)=O)N2c2ccc(F)cc2)cc1 (centres undefined)", 0.2),
]

Would you kindly look at the next entry?
Qu. Name the recorded selectivity ratio for COc1ccc(C2=Cc3ccc(F)cc3C(CC(=O)C(C)O)N2c2ccc(C#N)cc2)cc1 (centres undefined) .
Ans. 1.2

These data points were gathered from ChEMBL document CHEMBL3739256.
